- Test system: 786-0 renal
- assay_text: NCI-60 one-dose screen, 48 h
- details: 10 µM unless noted
The panel holds about 83,000 compounds, 20% with a hit somewhere; the sample as a whole holds those more often. Activity calls are given as the source filed them. The calls were made as follows: active = growth percent below 10; inactive = the rest.
Respond with a class label; see active, inactive

Give the logged outcome of this assay for the following molecule: COc1ccc(/C=C/c2nc(N3CCOCC3)c3cc(F)c(F)cc3n2)cc1OC
inactive

Also CC(C)C[C@H](NC(=O)[C@H](Cc1ccccc1)n1ccc(N2CCCCC2)cc1=O)B(O)O ?
inactive

And what about the molecule CCCCCCCCCN1C(=O)/C(=c2\sc3n(c2=O)C2C(NN=3)N(CC)C(=O)N2CC)c2ccccc21 (configuration not stated) ?
inactive

Next entry: CC(=O)Nc1ccc(S(=O)(=O)N2C(=O)CCC2C(=O)Nc2ccccc2)cc1 (configuration not stated)
inactive

What do we get for COC(=O)c1cc(-c2cccs2)c(C#N)c(N)c1C#N ?
inactive

For Nc1nc(Cl)c2c(ncn2Cc2ccc(CCl)cc2)n1 then?
inactive

# iterate: CC1=CNNc2c3ncnc-3ncn21
inactive

Do the same for CC(Cc1nnc(SCC(=O)Nc2ccc(I)cc2)n1N)c1ccccc1 (configuration not stated) please
inactive

What do we get for COc1ccc(-c2nc(-c3ccccc3)c(-c3ccccc3)n2C2CC2)cc1OC1CCCCC1 ?
inactive

Okay, and Nc1cc2c(cc1N)-c1cc(N)c(N)cc1C2 ?
inactive

Could you do the same for COc1ccc(C2SCC(=O)N2NC(=O)c2ccc(NC(=O)c3ccccn3)cc2)cc1OC (configuration not stated) , please?
inactive

Entry CCN(C(=O)c1cc2ccccc2[nH]1)[C@H]1CCC[C@@H](NCc2ccc(OC)cc2)C1 please
inactive

Now try O=C(CNC1CCCCC1)Nc1ccc(-c2nc3ccccc3s2)cc1 .
inactive

Could you do the same for COc1ccc(/C(=N/O)c2cc(F)c(F)c(OC)c2F)cc1O , please?
inactive

Same question for Nc1c(C(=O)Nc2cccc(C(F)(F)F)c2)sc2nc3c(cc12)CCCCCC3 please.
active

Could you do the same for CC1=C(C#N)C(C)(C)C(C#N)=C(C)N1 , please?
inactive

Field entry: Cc1ccc(Cn2c(-c3cccs3)nc3ccccc32)cc1
inactive

Another molecule: O=C(CCC(=O)OC1CCCC1)OC1CCCC1
inactive

Try this molecule too: Cc1ccc(OCCn2c(C)nn(-c3ccc(Cl)cc3)c2=O)cc1
inactive

Now consider CN1C(=O)[C@H]2c3c1cccc3[C@@]13NC(=O)O[C@H]1[C@H](CCC3(C)C)C2(C)C .
inactive

Same thing, different molecule: CC(=O)n1cc([C@H]2CC[C@H](c3cn(C(C)=O)c4ccccc34)c3c2[nH]c2ccccc32)c2ccccc21
inactive

And for O=C(O)C(=Cc1c2ccccc2cc2ccccc12)C(=O)O ?
inactive

---

- System: HS 578T breast
- assay_text: NCI-60 one-dose screen, 48 h (100 = growth as untreated, 0 = no growth, -100 = all killed)
- details: 10 µM unless noted
Compounds without any hit were thinned out: in the full panel of roughly 83,000, 20% have a hit.
observation_type: growth (%)
Report the figure in % without appending any unit label.

Consider the compound COc1ccc(C2=CC(c3ccc(Oc4ccnc5cc(Cl)ccc45)c(OC)c3)c3c(nc(OC)[nH]c3=O)N2)cc1 (stereo not given) and give its measured growth.
97.1

Same again, this time with C=C1C(=O)O[C@H]2[C@H]1CC/C(Cn1cc(-c3ccsc3)nn1)=C\CC[C@@]1(C)O[C@@H]21
28.2

// next record COc1cc(NS(C)(=O)=O)ccc1Nc1c2ccc([N+](=O)[O-])cc2nc2c(C)cccc12
58.4

Here is the next compound: COC12CC(=O)C(C(C)=O)=C(O)C1(C)c1c(O)c(C)c(O)c(C(C)=O)c1O2 (stereo not given)
75.4

Here is the next compound: COc1cc(OC)c(C(=O)/C=C/c2cccc(C(F)(F)F)c2)c(OC)c1
15.4

Moving on to CCN(CC)CCCNc1nc(C)cc(Nc2ccc3nc(C)cc(N)c3c2)n1
109

Now this one: O=C1NCC(c2cc3ccccc3[nH]c2=O)Nc2ccccc21 (stereo not given)
99.4

Queued: COc1ncc(-c2ccc3ncnc(Nc4cccc(Cl)c4)c3c2)cc1NS(=O)(=O)C1CC1
13.6

Same read-out for Cc1ccnc2nc(C(=O)OCC(=O)Nc3ccc(-c4ccccc4)cc3)nn12 ?
125

What about this compound? Cc1ccc(S(=O)(=O)OCC(=O)Nc2ccc(C(=O)O)c(O)c2)cc1
118

COc1cc(C(=O)OCCCCCCCCCCC[P+](c2ccccc2)(c2ccccc2)c2ccccc2)ccc1O , same question.
-13.3

Try the compound O=C(CN1CCN(c2cc3c(cc2F)c(=O)c(C(=O)O)cn3C2CC2)CC1)Nc1ccc(C(=O)/C=C/c2ccccc2)cc1
51.9

For CSc1ccccc1C#C/C=C\C#Cc1ccccc1N1CCCCC1=O then?
-20.4

And C=CCN=C1NC(=O)/C(=C/c2cc(C(C)(C)C)c(O)c(C(C)(C)C)c2)S1 ?
76.9

Now the same for CCCCCCCCCCn1cc[n+](C)c1
30.3

Query COc1cc2nc(Cl)nc(NCCO)c2cc1OC next
104

Follow-up item: COc1cc(C2C=C(C)N=C3SC=C(C)N32)cc(OC)c1OC (stereo not given)
2

Moving on to Cc1cc(Nc2nc(-c3ccncc3)nc3ccccc23)n[nH]1
22.6

Next compound up: O=C1c2ccccc2C(=O)c2c1oc1oc3c(c(=O)c21)c(=O)n(-c1ccccc1)c1ccccc31
90.5

Do the same for O=[N+]([O-])c1c(S(=O)(=O)O)cc2cc(S(=O)(=O)O)ccc2c1[N+](=O)[O-] please
98.7

---

- Tested on: SF-539 CNS
- assay_text: NCI-60 one-dose screen, 48 h
- details: 10 µM unless noted
About 83,000 compounds went through this panel and 20% of them were active in at least one assay; those are over-represented in the sample as a whole. Active and inactive are the calls of the source. The calls were made as follows: active = growth percent below 10; inactive = the rest.
Would you mind answering with one of these outcomes? class 1 (active), class 0 (inactive)

Would you mind telling me which call this test gave O=C(CN1CCN(c2cc3c(cc2F)c(=O)c(C(=O)O)cn3C2CC2)CC1)Nc1ccc(C(=O)/C=C/c2ccc(Cl)cc2)cc1 ?
class 0

Request: Nc1c(C(=O)Nc2cccc(C(F)(F)F)c2)sc2nc3c(cc12)C(O)CCC3 (centres undefined)
class 0

Here is the next compound: COc1cc(/C=C/C(=O)c2ccccc2O)ccc1OCCCOc1cc2c(cc1OC)C(=O)N1CCC[C@H]1C=N2
class 1

Note, next up: CC(=O)n1cc([C@H]2CC[C@H](c3cn(C(C)=O)c4ccccc34)c3c2[nH]c2ccccc32)c2ccccc21
class 0

---

- Tested on: EKVX NSCLC
- assay_text: NCI-60 one-dose screen, 48 h
- details: 10 µM unless noted
Compounds without any hit were thinned out: in the full panel of roughly 83,000, 20% have a hit. Activity calls are given as the source filed them. Rule for the calls: active = growth percent below 10; inactive = the rest.
Answer with one of the outcomes given here: y for active, n for inactive

Record request — test call for COc1ncc(-c2ccc3ncnc(Nc4cccc(Cl)c4)c3c2)cc1NS(=O)(=O)C1CC1
n

Ok, now CCN1C(=O)N(CC)C2C1NN=c1s/c(=C\c3cccc(F)c3)c(=O)n12 (stereo not given)
n

Could you do the same for CC/C=C\C[C@H](O)C/C=C1/C(=O)C(Cl)=C[C@@H]1C/C=C\CCCC(=O)OC , please?
y

Consider next the molecule CC(C)(C)c1cn2cccc(C(=O)N3CCN(CC(=O)Nc4ccc(Cl)cc4C(=O)c4ccccc4Cl)CC3)c2n1 in the same way.
n

Please answer likewise for CC(C)C(C(=O)CCN(C)C)c1ccc(Cl)cc1 (stereo not given)
n

Likewise for C=CCc1cc(Cl)cc2c(OC(C)=O)c(C(C)=O)c(-c3ccccc3)nc12 ?
n

Also O=C(NCCc1c[nH]c2ccccc12)C1Cc2ccccc2CN1C(=O)c1ccco1 (stereo not given) ?
n

Next: COc1ccc(/C=C2\Oc3cc(OCCN4CCCC4)ccc3C2=O)c(OC)c1
n

Now the molecule OCc1c(-c2ccccc2)nc2sccn12
n

C=C1C(=O)O[C@H]2[C@H]1CC/C(COC(=O)NCc1cc(OC)cc(OC)c1)=C\CC[C@@]1(C)O[C@@H]21 ?
n

---

So I've got a bunch of compounds here, and I need their growth values.
- Test system: HOP-92 NSCLC
- assay_text: NCI-60 one-dose screen, 48 h (100 = growth as untreated, 0 = no growth, -100 = all killed)
- details: 10 µM unless noted
- Method: Growth inhibition of the HOP-92 human Non-Small Cell Lung tumor cell line is measured as a screen for anti-cancer activity. Cells are grown in 96 well plates and exposed to the test compound for 48 hours. Compounds are tested at a single concentration, which is 10^-5 M for most compounds. The reported endpoint is percent growth (GI% or GIPRCNT), where numbers from 0 - 100% represent growth inhibition, and numbers from -100% - 0 represent cell death. […]
About 83,000 compounds went through this panel and 20% of them were active in at least one assay; those are over-represented in the sample as a whole. The source made the active and inactive calls. How the source made its calls: active means growth percent below 10; inactive means the rest.

Form field: growth recorded for CCNCc1ccncc1 with HOP-92 NSCLC (enter value)
107% (inactive)

Consider next the compound CCCCCCc1nc2c(c(C)nn2-c2ccccc2)c2c1CCCCC2 in the same way.
91.5% (inactive)

Follow-up item: O=S(=O)(NCCCNc1cc(-c2cn(-c3ccccc3)nc2-c2cccc(O)c2)ccn1)c1cccc(F)c1
26% (inactive)

How about CN(C)c1nc(N)c(N=O)c(N)n1 ?
102% (inactive)

Now the same for c1cncc(CNc2ccccc2-c2nnc(Nc3ccc4c(c3)OCCO4)o2)c1
136% (inactive)

Param item: CCOc1ccc(/C=C/C=N/NC(N)=S)cc1
89.3% (inactive)

Entry N#CC1=C(N)n2nc(-c3ccncc3)nc2NC1c1cccc2ccccc12 (stereo not drawn) please
40.4% (inactive)

Record: CC1Cc2c(N(C)C)ncnc2N(C)c2ccc(Cl)cc21 (stereo not drawn)
58% (inactive)

Can you check COc1cccc2nc(Nc3ccc(NC(=O)c4ccc5ncccc5c4)cc3)ccc12 next?
111% (inactive)

Here is the next compound: COc1cc(CCn2nnc3c(NCCCCO)ncnc32)cc(OC)c1
83.8% (inactive)

Then this compound: N#CC1=C(N)OC2=C(C(=O)CCC2)C1c1ccco1 (stereo not drawn)
106% (inactive)

Please do the same for CCN(CC)CCCNc1nc(C)cc(Nc2ccc3nc(C)cc(N)c3c2)n1 as well.
97.5% (inactive)

Repeat with CCC(c1ccc(OC)cc1)C(CC)c1ccc(O)c(CN2CCCC2)c1 (stereo not drawn)
-34.7% (active)

Moving on to CN1CCN(CCCOc2ccc3nc(Nc4ccc(C(F)(F)F)c(Cl)c4)ccc3c2)CC1
7.32% (active)

Next: C=CCOc1cccc(/C=C/C(=O)c2sc(Nc3cccnc3)nc2C)c1
74.7% (inactive)

Next: CCCCC(N)(C(=O)O)C1CCCC1 (stereo not drawn)
102% (inactive)

Entry CCCCNC(=O)NS(=O)(=O)c1ccc(N2N=C(c3ccc(C)cc3C)CC2c2ccc(OC)cc2)cc1 (stereo not drawn) please
75.1% (inactive)

// next record CCN(CC)CCSc1c2ccc(Cl)cc2nc2ccc(OC)cc12
82.3% (inactive)

Would you kindly repeat that for Cn1c(-c2nonc2NC(=O)c2ccc(F)cc2)nc2ccccc21 ?
104% (inactive)

Would you kindly repeat that for COc1ccc(C(=O)/C=C/c2ccc(/C=C/c3cc(OC)c(OC)c(OC)c3)cc2)cc1 ?
51.9% (inactive)

Do the same for COc1ccc(Cn2c(SC)nc(=O)n(Cc3ccc(Cl)cc3)c2=O)cc1 please
90% (inactive)

Entry COc1ccc(C2CC(=O)Nc3c2c(C)nn3-c2nc3ccccc3[nH]2)cc1OC (stereo not drawn) please
89.3% (inactive)

Could you do the same for Nc1ccc(S(=O)(=O)c2ccc(Cl)cc2)cc1 , please?
93.4% (inactive)
